test: protein stability index of a GFP-peptide fusion (yeast GPS) (PSI 1-4); higher = more stable; sorted into four equal gates, so the index is relative within each strain; conditions: san1∆
So basically every entry gets a class from its protein stability index, ranges being LOW (below 2), MEDIUM (2 to below 3), HIGH (3 or more)

Study these solved cases before continuing.
{"columns": ["SEQ STRING", "LABEL CLASS"],
 "data": [
  ["RGAWGKPHGLAARVDIG [RPL10]", "LOW"],
  ["ALFLSKINRPPVSVSRI [RPL18A]", "LOW"],
  ["LAMVIIKEFVDDLKKDH [DSN1]", "MEDIUM"],
  ["NLDSSITQDGKFAYKID [YMR129W/POM152]", "MEDIUM"],
  ["KDAVDYSKIPNILSNKP [RRP6]", "LOW"]
]}

Form field 'band' for FLKHNGEEDAVDLLLEI [RPN1]
HIGH

Lab note: sort MNGNGKPGIPRGNTKIH [SIR3] into the matching protein stability index band.
HIGH

Returns: class label. Input: FERIMILDPQVTRFTTW [YJL039C/NUP192]
LOW

Bin? VENSVLIEKVDDTAANN [YIL149C/MLP2]
MEDIUM

Consider EDVLSSFYRVEKIKKIN [SSN2] . To which protein stability index class does it belong?
LOW

Band of LKVQKLSRPSLPKIKTV [RPL35A] ?
HIGH

* * *

test: protein stability index of a GFP-peptide fusion (yeast GPS) (PSI 1-4); higher = more stable; sorted into four equal gates, so the index is relative within each strain; conditions: pdr5∆
Exercise: state measured protein stability index for each of the sequences provided.
Give bare numbers.

A selection of reference data follows.
{"columns": ["SEQ STRING", "ENDPOINT VALUE"],
 "data": [
  ["RFDAQTGSDREVQRILI [RPT3]", 3.08],
  ["LKSGLPLSGLLFKNYRF [YMR129W/POM152]", 2.52],
  ["LIGSIRFPTKFVTQFRH [RET1]", 1.41],
  ["RKTLKEKAIPKDQRATT [RPO26]", 3.18],
  ["FQNLELETEQLSSELDS [SMC2]", 2.58]
]}

# per-item lookup of protein stability index; items listed below
1. AHNKPSLFSKIKTFFTQ [YAR002W/NUP60]
2. DLIKFSAETLSELIRTT [FAS1]
3. PLLVPGMTPCTVSPDFV [FAS1]

2.85
2.29
2.38

Please give protein stability index for each item listed below.
1. HTQDIIGGMRVDENGDP [RET1]
2. DIWRVAGKFELLDRILP [SNF2]
3. FYKLNMPDEFNTLYTAI [SRP72]
4. LLREYDILSQILYGLVD [YJL039C/NUP192]
5. VITIKSRIRVKIEGCIS [RPB7]
6. DVKLLHSQFMKDLKDDS [YJL039C/NUP192]
7. INKQRVPLSDNAIIEAN [RPL7A]

1: 3.32; 2: 2.65; 3: 2.64; 4: 2.06; 5: 2.13; 6: 2.85; 7: 2.61

Each of the following entries comes with a recorded value; kindly state protein stability index for each.
1. AENDVIEATDLGNIASS [BRR2]
2. MTVTFLILAGQVKVKGQ [YCS4]

1: 3.17; 2: 2.27

Okay, here is my list. What is protein stability index for each of these?
1. GSYGSLLRFNGVERLIP [PRE4]
2. DNNSKAEASFTFGTKHA [YLR335W/NUP2]
3. HGMDFTTDKLRSMVRKW [RPS1A]
4. DLLILTRSIKEKWLLNQ [SRB6]
5. RNLDSATLKEIKSIIEQ [SMC3]
6. QVNQLQRILEVLGTPDQ [SSN3]
7. DKILQLNDRFQTLSSHL [PGD1]
8. TFRIFHNHDTGCDENDS [YDL088C/ASM4]

1: 2.44; 2: 3.09; 3: 2.55; 4: 1.35; 5: 3.51; 6: 1.69; 7: 2.66; 8: 3.09

// each listed sequence needs a value for protein stability index
1. PSTAIHTSPHQPSDVKP [SIR4]
2. FNFGGKSDTVTSASQPF [YOR098C/NUP1]
3. HDISKTETSNEDEDEDD [SNU114]

1: 2.95; 2: 2.03; 3: 3.03

Consider the following items and state reported protein stability index for each.
1. LNIDFGSDKQMFTQIYL [YML103C/NUP188]
2. KIFQTTPEKDLFIGLFT [YCS4]

1. 2.99
2. 1.84
